Tested on: S. aureus ATCC 25923
Assay: Antibacterial activity, pre-exposure (planktonic cells and biofilm formation)
Format: cell-based, Staphylococcus aureus
Settings: pre-exposure, 5 µM, ± SD
Average inhibition %, biofilms viability by entry:
measured metric: Average inhibition %, biofilms viability (%)

[
  {
    "compound": "CCCCCCCCc1ccc2cc(CC(N)(CO)CO)ccc2c1 [Compound 79]",
    "measured metric": "Average inhibition %, biofilms viability",
    "readout value": 28
  },
  {
    "compound": "CCCCCc1ccc(-c2ccc(CCC(N)(CO)CO)cc2)cc1 [Compound 15]",
    "measured metric": "Average inhibition %, biofilms viability",
    "readout value": 42.5
  },
  {
    "compound": "CCCCCCCCCCc1ccc(CCC(N)(CO)CO)nc1 [Compound 62]",
    "measured metric": "Average inhibition %, biofilms viability",
    "readout value": 23.3
  },
  {
    "compound": "CCCCCCCCCCc1ccc2nc(CCC(N)(CO)CO)ccc2c1 [Compound 81]",
    "measured metric": "Average inhibition %, biofilms viability",
    "readout value": 28.3
  },
  {
    "compound": "CCCCCC/C=C/c1ccc(CCC(N)(CO)CO)cc1 [Compound 42]",
    "measured metric": "Average inhibition %, biofilms viability",
    "readout value": 16.3
  },
  {
    "compound": "CCCCCCCCc1ccc(CCC(N)(CO)CO)cc1 [fingolimod, Fingolimod]",
    "measured metric": "Average inhibition %, biofilms viability",
    "readout value": 38.7
  },
  {
    "compound": "CCCCCCCCCCc1ccc2nc(CC(N)(CO)CO)ccc2c1 [Compound 83]",
    "measured metric": "Average inhibition %, biofilms viability",
    "readout value": 34.6
  },
  {
    "compound": "CCCCCCCCCCc1ccc(CCC(N)(CO)CO)cc1 [Compound 11]",
    "measured metric": "Average inhibition %, biofilms viability",
    "readout value": 41.8
  },
  {
    "compound": "CCCCCCCCc1ccc(CC(N)(CO)CO)cc1 [Compound 44]",
    "measured metric": "Average inhibition %, biofilms viability",
    "readout value": 24.9
  },
  {
    "compound": "CCCCCCCCOc1ccc(CCC(N)(CO)CO)cc1 [Compound 48]",
    "measured metric": "Average inhibition %, biofilms viability",
    "readout value": 22.4
  }
]

---

System: P. aeruginosa ATCC 9027
Experiment: Antibacterial activity, pre-exposure
Type: cell-based, Pseudomonas aeruginosa
Details: Pseudomonas aeruginosa, ATCC9027; P. aeruginosa ATCC 9027, pre-exposure, 100 µM, ± SD; read-out: Average inhibition %, biofilms biomass
Kindly return satisfied if reported inhibition at 100 µM is no lower than 4%; return not satisfied if it is lower.

[
  {
    "compound": "CCCCCCCCc1ccc(C(O)CC(N)(CO)CO)cc1 (stereo not shown) [Compound 54]",
    "category label": "satisfied"
  },
  {
    "compound": "CCCCCCCCc1ccc2ccc(CC(N)(CO)CO)nc2c1 [Compound 82]",
    "category label": "not satisfied"
  },
  {
    "compound": "CCCCCCCCCCc1ccc(C(O)CC(N)(CO)CO)cc1 (stereo not shown) [Compound 55]",
    "category label": "satisfied"
  },
  {
    "compound": "CCCCCCCCc1ccc2nc(CCC(N)(CO)CO)ccc2c1 [Compound 80]",
    "category label": "not satisfied"
  },
  {
    "compound": "CCCCCCCCCCc1ccc(CCC(N)(CO)CO)nc1 [Compound 62]",
    "category label": "satisfied"
  },
  {
    "compound": "CCCCCc1ccc(-c2ccc(CCC(N)(CO)CO)cc2)cc1 [Compound 15]",
    "category label": "not satisfied"
  },
  {
    "compound": "CCCCCCCCc1ccc(CCC(N)(CO)CO)cc1 [fingolimod, Fingolimod]",
    "category label": "satisfied"
  },
  {
    "compound": "CCCCCCCCc1ccc(CC(N)(CO)CO)cc1 [Compound 44]",
    "category label": "satisfied"
  },
  {
    "compound": "CCCCCC/C=C/c1ccc(CCC(N)(CO)CO)cc1 [Compound 42]",
    "category label": "satisfied"
  },
  {
    "compound": "CCCCCCCCc1ccc2cc(CC(N)(CO)CO)ccc2c1 [Compound 79]",
    "category label": "not satisfied"
  },
  {
    "compound": "CCCCCCCCCCOc1ccc(CCC(N)(CO)CO)cc1 [Compound 49]",
    "category label": "not satisfied"
  },
  {
    "compound": "CCCCCCCCOc1ccc(CCC(N)(CO)CO)cc1 [Compound 48]",
    "category label": "satisfied"
  },
  {
    "compound": "CCCCCCCCCCc1ccc2nc(CC(N)(CO)CO)ccc2c1 [Compound 83]",
    "category label": "not satisfied"
  },
  {
    "compound": "CCCCCCCCCCc1ccc2nc(CCC(N)(CO)CO)ccc2c1 [Compound 81]",
    "category label": "not satisfied"
  },
  {
    "compound": "CCCCCCCCCCc1ccc(CCC(N)(CO)CO)cc1 [Compound 11]",
    "category label": "satisfied"
  },
  {
    "compound": "CCCCCCCCc1cccc(CCC(N)(CO)CO)c1 [Compound 43]",
    "category label": "satisfied"
  }
]

---

System: S. aureus P2
Experiment: Antibacterial activity, pre-exposure
Format: cell-based, Staphylococcus aureus
Settings: Staphylococcus aureus; S. aureus P2, pre-exposure, 25 µM, ± SD; read-out: Average inhibition %, planktonic cells turbidity

[
  {
    "molecule": "CCCCCCCCc1ccc2cc(CC(N)(CO)CO)ccc2c1",
    "inhibition at 25 µM (%)": 99.1
  },
  {
    "molecule": "CCCCCCCCCCc1ccc2nc(CCC(N)(CO)CO)ccc2c1",
    "inhibition at 25 µM (%)": 99.2
  },
  {
    "molecule": "CCCCCCCCCCc1ccc(C(O)CC(N)(CO)CO)cc1 (stereo not drawn)",
    "inhibition at 25 µM (%)": 98.8
  },
  {
    "molecule": "CCCCCCCCc1ccc2nc(CCC(N)(CO)CO)ccc2c1",
    "inhibition at 25 µM (%)": 98.8
  },
  {
    "molecule": "CCCCCCCCc1ccc(CCC(N)(CO)CO)cc1",
    "inhibition at 25 µM (%)": 99.3
  },
  {
    "molecule": "CCCCCCCCc1ccc2ccc(CC(N)(CO)CO)nc2c1",
    "inhibition at 25 µM (%)": 99.4
  }
]

---

Tested on: S. aureus ATCC 12598
Assay: Antibacterial activity, pre-exposure
Assay type: cell-based, Staphylococcus aureus
Settings: Staphylococcus aureus, ATCC12598; S. aureus ATCC 12598, pre-exposure, 10 µM, ± SD; read-out: Average inhibition %, planktonic cells turbidity

[
  {
    "compound": "CCCCCCCCCCc1ccc2nc(CCC(N)(CO)CO)ccc2c1",
    "unit of measure": "%",
    "inhibition at 10 µM": 99.8
  },
  {
    "compound": "CCCCCCCCc1ccc(CCC(N)(CO)CO)cc1",
    "unit of measure": "%",
    "inhibition at 10 µM": 21.5
  },
  {
    "compound": "CCCCCCCCc1ccc2cc(CC(N)(CO)CO)ccc2c1",
    "unit of measure": "%",
    "inhibition at 10 µM": 99.6
  },
  {
    "compound": "CCCCCCCCc1ccc2nc(CCC(N)(CO)CO)ccc2c1",
    "unit of measure": "%",
    "inhibition at 10 µM": 99.6
  },
  {
    "compound": "CCCCCCCCCCc1ccc(C(O)CC(N)(CO)CO)cc1 (stereo not drawn)",
    "unit of measure": "%",
    "inhibition at 10 µM": 99.6
  },
  {
    "compound": "CCCCCCCCc1ccc2ccc(CC(N)(CO)CO)nc2c1",
    "unit of measure": "%",
    "inhibition at 10 µM": 99.6
  }
]

---

Average inhibition %, planktonic cells viability values by entry
System: S. aureus ATCC 25923
Experiment: Antibacterial activity, post-exposure on preformed 18-h-old biofilms
Assay type: cell-based, Staphylococcus aureus
Details: 100 µM, ± SD
measured metric: Average inhibition %, planktonic cells viability

[
  {
    "compound": "CCCCCCCCCCc1ccc(C(O)CC(N)(CO)CO)cc1 (stereo not shown) [Compound 55]",
    "readout value": "70 ± 12.5%"
  },
  {
    "compound": "CCCCCCCCc1ccc2cc(CC(N)(CO)CO)ccc2c1 [Compound 79]",
    "readout value": "23.6 ± 15.5%"
  },
  {
    "compound": "CCCCCCCCOc1ccc(CCC(N)(CO)CO)cc1 [Compound 48]",
    "readout value": "21.3 ± 18.5%"
  },
  {
    "compound": "CCCCCCCCCCc1ccc(CCC(N)(CO)CO)nc1 [Compound 62]",
    "readout value": "55.8 ± 42.1%"
  },
  {
    "compound": "CCCCCCCCc1ccc(CCC(N)(CO)CO)cc1 [fingolimod, Fingolimod]",
    "readout value": "48.9 ± 16.2%"
  },
  {
    "compound": "CCCCCCCCCCc1ccc(CCC(N)(CO)CO)cc1 [Compound 11]",
    "readout value": "6 ± 10.4%"
  },
  {
    "compound": "CCCCCCCCCCOc1ccc(CCC(N)(CO)CO)cc1 [Compound 49]",
    "readout value": "6 ± 10.4%"
  },
  {
    "compound": "CCCCCc1ccc(-c2ccc(CCC(N)(CO)CO)cc2)cc1 [Compound 15]",
    "readout value": "3.8 ± 6.6%"
  },
  {
    "compound": "CCCCCCCCc1ccc(CC(N)(CO)CO)cc1 [Compound 44]",
    "readout value": "99.8 ± 0.6%"
  },
  {
    "compound": "CCCCCCCCc1cccc(CCC(N)(CO)CO)c1 [Compound 43]",
    "readout value": "61.4 ± 27.6%"
  },
  {
    "compound": "CCCCCCCCc1ccc2nc(CCC(N)(CO)CO)ccc2c1 [Compound 80]",
    "readout value": "81 ± 8%"
  },
  {
    "compound": "CCCCCC/C=C/c1ccc(CCC(N)(CO)CO)cc1 [Compound 42]",
    "readout value": "68.7 ± 18.2%"
  },
  {
    "compound": "CCCCCCCCCCc1ccc2nc(CCC(N)(CO)CO)ccc2c1 [Compound 81]",
    "readout value": "28.8 ± 17.2%"
  },
  {
    "compound": "CCCCCCCCc1ccc(C(O)CC(N)(CO)CO)cc1 (stereo not shown) [Compound 54]",
    "readout value": "97.9 ± 3.4%"
  },
  {
    "compound": "CCCCCCCCc1ccc2ccc(CC(N)(CO)CO)nc2c1 [Compound 82]",
    "readout value": "94.5 ± 10%"
  },
  {
    "compound": "CCCCCCCCCCc1ccc2nc(CC(N)(CO)CO)ccc2c1 [Compound 83]",
    "readout value": "80.3 ± 17.9%"
  }
]
